The origin of these recorded values is patent US5604294A.

# Test system: human mixed lymphocyte reaction (MLR)
# test.name: human mixed lymphocyte reaction (MLR) assay (immunosuppressant activity)
# Assay type: cell-based
# condition: Lymphocyte, Table 1
pIC50: −log10 of the molar value.
measured.endpoint: pIC50

compound: CC[C@@H]1/C=C(\C)C(O)[C@H](C)C[C@H](OC)[C@H]2O[C@@](O)(C(=O)C(=O)N3CCCC[C@H]3C(=O)O[C@H](/C(C)=C/[C@@H]3CC[C@@H](O)[C@H](OC)C3)[C@H](C)[C@@H](OC(=O)CI)CC1=O)[C@H](C)C[C@@H]2OC (stereo partly shown)
target: human mixed lymphocyte reaction (MLR)
pIC50: 6.69

compound: CC[C@@H]1/C=C(\C)C[C@H](C)C[C@H](OC)[C@H]2O[C@@](O)(C(=O)C(=O)N3CCCC[C@H]3C(=O)O[C@H](/C(C)=C/[C@@H]3CC[C@@H](O)[C@H](OC)C3)[C@H](C)C(N3CCN(c4ccccc4)CC3)CC1=O)[C@H](C)C[C@@H]2OC (stereo partly shown)
target: human mixed lymphocyte reaction (MLR)
pIC50: 6.92

1 = CC[C@@H]1/C=C(\C)C[C@H](C)C[C@H](OC)[C@H]2O[C@@](O)(C(=O)C(=O)N3CCCC[C@H]3C(=O)O[C@H](/C(C)=C/[C@@H]3CC[C@@H](O)[C@H](OC)C3)[C@H](C)C(N3CCN(C)CC3)CC1=O)[C@H](C)C[C@@H]2OC (stereo partly shown)
2 = CC[C@@H]1/C=C(\C)C(O)[C@H](C)C[C@H](OC)[C@H]2O[C@@](O)(C(=O)C(=O)N3CCCC[C@H]3C(=O)O[C@H](/C(C)=C/[C@@H]3CC[C@@H](OC(=O)CI)[C@H](OC)C3)[C@H](C)[C@@H](O)CC1=O)[C@H](C)C[C@@H]2OC (stereo partly shown)
-- ask Looking at recorded values for pIC50, does 1 or 2 come in lower? Your choice should be expressed through its label.
-- reply 2

---

# Tested on: human mixed lymphocyte reaction (MLR)
# test.name: human mixed lymphocyte reaction (MLR) assay (immunosuppressant activity)
# Format: cell-based
# condition: Lymphocyte, Table 1
pIC50: −log10 of the molar value.
measured.endpoint: pIC50

Below, each entry is followed by its recorded pIC50 result.
compound: CC[C@@H]1/C=C(\C)C[C@H](C)C[C@H](OC)[C@H]2O[C@@](O)(C(=O)C(=O)N3CCCC[C@H]3C(=O)O[C@H](/C(C)=C/[C@@H]3CC[C@@H](O)[C@H](OC)C3)[C@H](C)[C@@H](OC(=O)CI)CC1=O)[C@H](C)C[C@@H]2OC [Example 21]
pIC50: 8.03
--
compound: CC[C@@H]1/C=C(\C)C[C@H](C)C[C@H](OC)[C@H]2O[C@@](O)(C(=O)C(=O)N3CCCC[C@H]3C(=O)O[C@H](/C(C)=C/[C@@H]3CC[C@@H](O)[C@H](OC)C3)[C@H](C)C(N3CCN(Cc4ccccc4)CC3)CC1=O)[C@H](C)C[C@@H]2OC (stereo partly drawn) [Example 16]
pIC50: 6.72

I = CC[C@@H]1/C=C(\C)C[C@H](C)C[C@H](OC)[C@H]2O[C@@](O)(C(=O)C(=O)N3CCCC[C@H]3C(=O)O[C@H](/C(C)=C/[C@@H]3CCC(=O)[C@H](OC)C3)[C@H](C)[C@@H](O)CC1=O)[C@H](C)C[C@@H]2OC [Example 4]
II = CC[C@@H]1/C=C(\C)C[C@H](C)C[C@H](OC)[C@H]2O[C@@](O)(C(=O)C(=O)N3CCCC[C@H]3C(=O)O[C@H](/C(C)=C/[C@@H]3CC[C@@H](OC(=S)Oc4ccccc4)[C@H](OC)C3)[C@H](C)[C@@H](O)CC1=O)[C@H](C)C[C@@H]2OC [Example 1]
III = CC[C@@H]1/C=C(\C)C[C@H](C)C[C@H](OC)[C@H]2O[C@@](O)(C(=O)C(=O)N3CCCC[C@H]3C(=O)O[C@H](/C(C)=C/[C@@H]3CC[C@@H](O)[C@H](OC)C3)[C@H](C)C=CC1=O)[C@H](C)C[C@@H]2OC [Example 3]
IV = CC[C@@H]1/C=C(\C)C[C@H](C)C[C@H](OC)[C@H]2O[C@@](O)(C(=O)C(=O)N3CCCC[C@H]3C(=O)O[C@H](/C(C)=C/[C@@H]3CC[C@@H](OC(=O)CI)[C@H](OC)C3)[C@H](C)[C@@H](O)CC1=O)[C@H](C)C[C@@H]2OC [Example 23]
-- ask Rank the items in ascending order with respect to pIC50. Answer by writing out the labels in the requested order.
-- reply III, IV, II, I

---

# Tested on: human mixed lymphocyte reaction (MLR)
# test.name: human mixed lymphocyte reaction (MLR) assay (immunosuppressant activity)
# Format: cell-based
# condition: Lymphocyte, Table 1
measured.endpoint: IC50 (nM)

compound: CC[C@@H]1/C=C(\C)C[C@H](C)C[C@H](OC)[C@H]2O[C@@](O)(C(=O)C(=O)N3CCCC[C@H]3C(=O)O[C@H](/C(C)=C/[C@@H]3CC[C@@H](O)[C@H](OC)C3)[C@H](C)C(N3CCNCC3)CC1=O)[C@H](C)C[C@@H]2OC (stereo partly shown) [Example 27]
IC50 (nM): 521

1 = CC[C@@H]1/C=C(\C)C[C@H](C)C[C@H](OC)[C@H]2O[C@@](O)(C(=O)C(=O)N3CCCC[C@H]3C(=O)O[C@H](/C(C)=C/[C@@H]3CC[C@@H](O)[C@H](OC)C3)[C@H](C)C(=O)CC1=O)[C@H](C)C[C@@H]2OC [Example 7]
2 = CC[C@@H]1/C=C(\C)C[C@H](C)C[C@H](OC)[C@H]2O[C@@](O)(C(=O)C(=O)N3CCCC[C@H]3C(=O)O[C@H](/C(C)=C/[C@@H]3CC[C@@H](OC(=N)C(Cl)(Cl)Cl)[C@H](OC)C3)[C@H](C)[C@@H](O)CC1=O)[C@H](C)C[C@@H]2OC [Example 9]
3 = CC[C@@H]1/C=C(\C)C[C@H](C)C[C@H](OC)[C@H]2O[C@@](O)(C(=O)C(=O)N3CCCC[C@H]3C(=O)O[C@H](/C(C)=C/[C@@H]3CC[C@@H](O)[C@H](OC)C3)[C@H](C)c3cc1nn3CCO)[C@H](C)C[C@@H]2OC [Example 8]
-- ask # sort list by recorded IC50, greatest to least Answer by writing out the labels in the requested order.
-- reply 3, 1, 2
(3: 380 nM, 1: 113 nM, 2: 0.02 nM)
